Hey, just so you know, these numbers are from PubChem BioAssay.

# Study target: Fibroblast growth factor 2 (Homo sapiens) (UniProt P09038)
# Sequence (P09038 whole entry, looked up): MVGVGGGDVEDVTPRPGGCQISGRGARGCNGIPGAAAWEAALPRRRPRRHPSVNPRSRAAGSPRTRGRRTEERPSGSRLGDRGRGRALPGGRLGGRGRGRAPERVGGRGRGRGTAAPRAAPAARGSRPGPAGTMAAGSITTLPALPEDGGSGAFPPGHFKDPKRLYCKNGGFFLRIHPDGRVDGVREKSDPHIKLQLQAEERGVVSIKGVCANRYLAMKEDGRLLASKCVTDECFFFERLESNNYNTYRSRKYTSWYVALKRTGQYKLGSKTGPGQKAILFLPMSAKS
# Assay text: basic fibroblast growth factor binding to printed compounds – biochemical, small-molecule microarray, 635/667 nm fluorescence, primary screen (AID 1133)
# Condition parameters: FGF2, fluorescence 635/667, higher = more signal
This section presents compounds with their documented composite z-score values.
Please respond with just the number, no unit label.

Compound | composite z-score
CCOC(=O)C[C@H]1[C@H](OC(=O)Cc2ccc3c(c2)OCO3)[C@@H](NC(=O)c2ccc3ccccc3n2)c2cc(OCCCO)ccc2N1C(=O)c1ccc2ccccc2n1 | 0.13
C=CCN1C(=O)[C@]2(CCC(=O)OC(C)(C)C)N=C(c3ccc(OCCCO)cc3)O[C@@H]2c2ccccc21 | -0.132
CCCC[C@@H]1C[C@H]1[C@@H](NC(=O)c1cccs1)c1ccccc1C(F)(F)F | 0.28

Please report the measured composite z-score for CN(C)c1ccc(C(O)C2C=CC3C(=O)NC(=O)C3N2Nc2ccccn2)cc1 (stereo not given)
0.417

Please report the measured composite z-score for CCOC(=O)C[C@H]1[C@H](OC(=O)c2ccc(C(=O)c3ccccc3)cc2)[C@@H](NC(=O)CC(C)C)c2cc(OCCCO)ccc2N1C(=O)c1ccccc1
0.609
